- Measured On: USP18 (Homo sapiens, UniProt Q9UMW8)
- Sequence (Q9UMW8 whole entry, species assumed): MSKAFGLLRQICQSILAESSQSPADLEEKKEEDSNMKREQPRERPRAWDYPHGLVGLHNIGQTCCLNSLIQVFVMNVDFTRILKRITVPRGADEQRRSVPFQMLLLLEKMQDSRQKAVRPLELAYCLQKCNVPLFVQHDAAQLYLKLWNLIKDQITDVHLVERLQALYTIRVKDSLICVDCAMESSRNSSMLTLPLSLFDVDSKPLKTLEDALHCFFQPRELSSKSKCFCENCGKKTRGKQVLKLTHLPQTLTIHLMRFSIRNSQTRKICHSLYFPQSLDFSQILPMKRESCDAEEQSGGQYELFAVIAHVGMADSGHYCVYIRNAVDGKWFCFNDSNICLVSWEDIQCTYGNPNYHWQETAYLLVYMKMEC
Measured Attribute: IC50

Entry Cc1nc2c(C(O)C(=O)N3CC4=C(C3)CN(S(=O)(=O)c3cnc5c(c3)OCCO5)C4)cccc2o1 (stereo not shown) [FT709] , USP18 (Homo sapiens, UniProt Q9UMW8) data, IC50 value: > 27.9 µM

----------
- Measured On: UniProt:Q96K76
- Sequence (Q96K76 whole entry, species assumed): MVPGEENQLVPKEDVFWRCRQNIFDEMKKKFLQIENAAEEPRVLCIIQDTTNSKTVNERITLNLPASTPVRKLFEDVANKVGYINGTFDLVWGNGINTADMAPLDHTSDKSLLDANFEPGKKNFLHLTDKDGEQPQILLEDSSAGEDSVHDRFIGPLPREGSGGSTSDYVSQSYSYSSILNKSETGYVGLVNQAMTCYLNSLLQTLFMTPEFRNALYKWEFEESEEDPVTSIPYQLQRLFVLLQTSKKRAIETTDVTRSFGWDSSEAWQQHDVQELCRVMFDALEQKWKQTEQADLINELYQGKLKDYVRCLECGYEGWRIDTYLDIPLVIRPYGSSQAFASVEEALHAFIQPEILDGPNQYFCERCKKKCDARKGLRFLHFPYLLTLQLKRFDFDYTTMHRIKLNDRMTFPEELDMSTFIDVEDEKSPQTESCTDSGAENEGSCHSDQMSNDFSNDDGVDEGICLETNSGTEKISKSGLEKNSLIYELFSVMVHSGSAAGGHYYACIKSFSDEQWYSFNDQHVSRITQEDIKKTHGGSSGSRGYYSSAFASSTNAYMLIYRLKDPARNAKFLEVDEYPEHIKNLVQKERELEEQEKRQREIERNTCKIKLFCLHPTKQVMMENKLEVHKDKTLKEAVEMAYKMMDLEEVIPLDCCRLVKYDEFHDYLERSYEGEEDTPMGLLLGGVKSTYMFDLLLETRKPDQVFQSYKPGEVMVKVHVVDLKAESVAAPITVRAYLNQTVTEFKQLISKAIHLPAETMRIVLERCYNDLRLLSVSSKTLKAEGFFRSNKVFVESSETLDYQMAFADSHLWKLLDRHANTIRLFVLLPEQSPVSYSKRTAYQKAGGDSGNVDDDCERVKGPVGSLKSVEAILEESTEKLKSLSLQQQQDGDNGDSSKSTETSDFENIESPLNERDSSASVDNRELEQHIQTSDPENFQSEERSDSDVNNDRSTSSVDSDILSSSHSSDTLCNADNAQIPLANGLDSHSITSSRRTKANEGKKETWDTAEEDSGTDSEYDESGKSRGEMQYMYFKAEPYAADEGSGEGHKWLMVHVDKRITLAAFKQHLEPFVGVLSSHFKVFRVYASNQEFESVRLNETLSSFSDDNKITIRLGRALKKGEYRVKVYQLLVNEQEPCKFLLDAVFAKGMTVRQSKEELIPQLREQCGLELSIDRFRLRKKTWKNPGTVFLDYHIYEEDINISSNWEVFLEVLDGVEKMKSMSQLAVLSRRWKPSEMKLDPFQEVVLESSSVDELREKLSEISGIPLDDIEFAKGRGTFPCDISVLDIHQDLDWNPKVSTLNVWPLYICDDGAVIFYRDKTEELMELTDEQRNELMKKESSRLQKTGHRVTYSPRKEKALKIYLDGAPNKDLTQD
pIC50: −log10 of the molar value.
Measured Attribute: pIC50

Per the record, Cc1nc2c(C(O)C(=O)N3CC4=C(C3)CN(S(=O)(=O)c3cnc5c(c3)OCCO5)C4)cccc2o1 (stereo not shown) [FT709] has pIC50 of < 4.48

----------
- Measured On: USP2 (Homo sapiens)
- Sequence (O75604 whole entry, species assumed): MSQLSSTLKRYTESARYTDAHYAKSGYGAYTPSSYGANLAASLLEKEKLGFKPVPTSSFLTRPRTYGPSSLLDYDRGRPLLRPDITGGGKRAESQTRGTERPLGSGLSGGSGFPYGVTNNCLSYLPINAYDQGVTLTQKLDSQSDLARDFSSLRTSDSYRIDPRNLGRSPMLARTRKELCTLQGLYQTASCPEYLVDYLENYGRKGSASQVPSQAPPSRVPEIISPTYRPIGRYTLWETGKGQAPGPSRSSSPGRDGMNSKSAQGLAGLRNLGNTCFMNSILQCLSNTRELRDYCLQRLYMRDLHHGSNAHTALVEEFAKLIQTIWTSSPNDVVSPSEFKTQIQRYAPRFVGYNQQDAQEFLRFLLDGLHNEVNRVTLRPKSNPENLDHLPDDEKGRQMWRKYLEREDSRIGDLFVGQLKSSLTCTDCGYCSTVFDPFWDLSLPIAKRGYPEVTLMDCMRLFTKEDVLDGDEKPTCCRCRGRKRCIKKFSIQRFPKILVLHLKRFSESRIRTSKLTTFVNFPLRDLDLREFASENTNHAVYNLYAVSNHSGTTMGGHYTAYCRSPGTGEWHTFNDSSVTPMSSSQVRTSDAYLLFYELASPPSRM
pIC50: −log10 of the molar value.
Measured Attribute: pIC50

The observed pIC50 for Cc1nc2c(C(O)C(=O)N3CC4=C(C3)CN(S(=O)(=O)c3cnc5c(c3)OCCO5)C4)cccc2o1 (stereo not shown) when tested with USP2 (Homo sapiens) stands at < 4.57

----------
- Measured On: USP1 (Homo sapiens, UniProt O94782)
- Sequence (O94782 whole entry, species assumed): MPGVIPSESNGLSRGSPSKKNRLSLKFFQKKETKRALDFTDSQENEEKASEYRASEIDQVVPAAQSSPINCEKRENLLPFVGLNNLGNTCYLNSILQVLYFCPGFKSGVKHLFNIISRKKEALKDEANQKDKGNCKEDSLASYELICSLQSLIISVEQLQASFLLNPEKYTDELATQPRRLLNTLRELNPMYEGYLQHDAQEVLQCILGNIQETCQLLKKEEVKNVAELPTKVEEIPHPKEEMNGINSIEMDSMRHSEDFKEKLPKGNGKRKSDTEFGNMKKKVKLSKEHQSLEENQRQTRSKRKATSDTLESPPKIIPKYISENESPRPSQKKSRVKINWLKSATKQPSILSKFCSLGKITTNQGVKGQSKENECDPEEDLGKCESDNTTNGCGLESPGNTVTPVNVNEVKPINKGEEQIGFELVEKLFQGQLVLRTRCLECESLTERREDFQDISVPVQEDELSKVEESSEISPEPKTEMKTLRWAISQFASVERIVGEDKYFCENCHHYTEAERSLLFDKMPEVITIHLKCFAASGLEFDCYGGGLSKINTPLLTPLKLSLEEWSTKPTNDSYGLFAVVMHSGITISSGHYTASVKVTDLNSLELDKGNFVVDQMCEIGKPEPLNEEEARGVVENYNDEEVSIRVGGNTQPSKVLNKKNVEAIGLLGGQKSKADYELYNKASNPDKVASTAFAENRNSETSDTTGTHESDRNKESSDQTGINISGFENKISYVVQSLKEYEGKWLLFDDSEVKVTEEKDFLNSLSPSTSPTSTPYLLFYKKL
- Sequence (Q8TAF3 whole entry partner, species assumed): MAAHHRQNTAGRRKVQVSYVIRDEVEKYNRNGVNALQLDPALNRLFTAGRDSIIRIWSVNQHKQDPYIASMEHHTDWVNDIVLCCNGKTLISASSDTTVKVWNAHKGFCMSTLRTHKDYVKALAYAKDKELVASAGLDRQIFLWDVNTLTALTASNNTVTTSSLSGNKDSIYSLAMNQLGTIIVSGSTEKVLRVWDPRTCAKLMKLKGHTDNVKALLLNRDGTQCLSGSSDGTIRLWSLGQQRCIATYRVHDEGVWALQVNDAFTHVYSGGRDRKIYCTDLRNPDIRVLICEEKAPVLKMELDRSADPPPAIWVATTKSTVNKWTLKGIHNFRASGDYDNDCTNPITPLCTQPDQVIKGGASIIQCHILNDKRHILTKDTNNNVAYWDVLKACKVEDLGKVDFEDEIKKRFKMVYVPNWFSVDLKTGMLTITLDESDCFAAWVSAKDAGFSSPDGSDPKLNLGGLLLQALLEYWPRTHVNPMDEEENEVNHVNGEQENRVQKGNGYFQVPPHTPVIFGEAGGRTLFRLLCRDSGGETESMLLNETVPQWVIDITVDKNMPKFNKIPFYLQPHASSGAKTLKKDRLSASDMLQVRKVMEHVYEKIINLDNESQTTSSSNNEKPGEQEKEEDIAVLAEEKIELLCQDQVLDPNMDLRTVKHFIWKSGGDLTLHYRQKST
pIC50: −log10 of the molar value.
Measured Attribute: pIC50

The compound identified as Cc1nc2c(C(O)C(=O)N3CC4=C(C3)CN(S(=O)(=O)c3cnc5c(c3)OCCO5)C4)cccc2o1 (stereo not shown) registered its pIC50 at < 4.59

----------
- Measured On: USP11 (Homo sapiens)
- Sequence (P51784 whole entry, species assumed): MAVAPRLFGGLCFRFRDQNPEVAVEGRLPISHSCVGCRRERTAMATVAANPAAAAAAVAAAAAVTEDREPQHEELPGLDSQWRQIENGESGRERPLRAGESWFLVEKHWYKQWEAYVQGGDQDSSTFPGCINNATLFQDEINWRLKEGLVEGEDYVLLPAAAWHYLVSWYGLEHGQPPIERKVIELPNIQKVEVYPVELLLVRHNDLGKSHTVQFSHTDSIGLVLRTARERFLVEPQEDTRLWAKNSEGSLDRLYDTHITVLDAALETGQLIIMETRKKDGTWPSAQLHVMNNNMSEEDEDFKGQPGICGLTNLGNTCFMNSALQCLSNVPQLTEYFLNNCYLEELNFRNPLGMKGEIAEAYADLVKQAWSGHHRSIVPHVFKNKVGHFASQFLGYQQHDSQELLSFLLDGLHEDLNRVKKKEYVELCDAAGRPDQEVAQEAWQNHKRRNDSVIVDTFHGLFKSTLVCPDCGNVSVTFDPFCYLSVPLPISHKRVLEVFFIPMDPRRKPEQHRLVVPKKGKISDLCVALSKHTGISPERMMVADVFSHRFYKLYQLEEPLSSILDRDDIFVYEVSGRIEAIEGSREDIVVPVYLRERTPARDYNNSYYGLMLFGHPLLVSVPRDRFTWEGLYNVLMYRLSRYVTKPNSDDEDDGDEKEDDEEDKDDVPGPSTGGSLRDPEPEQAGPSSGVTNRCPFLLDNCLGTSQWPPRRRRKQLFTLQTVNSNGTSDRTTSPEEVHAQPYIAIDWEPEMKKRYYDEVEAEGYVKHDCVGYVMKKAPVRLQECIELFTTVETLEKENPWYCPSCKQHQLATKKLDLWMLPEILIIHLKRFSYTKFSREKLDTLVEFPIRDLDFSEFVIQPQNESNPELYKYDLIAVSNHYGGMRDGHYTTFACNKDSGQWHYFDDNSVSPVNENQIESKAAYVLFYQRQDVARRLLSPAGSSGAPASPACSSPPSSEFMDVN
Measured Attribute: IC50

Lab entry: USP11 (Homo sapiens) assay, molecule Cc1nc2c(C(O)C(=O)N3CC4=C(C3)CN(S(=O)(=O)c3cnc5c(c3)OCCO5)C4)cccc2o1 (stereo not shown) , IC50 = > 33.3 µM

----------
- Measured On: UniProt:Q86T82
- Sequence (Q86T82 1-979): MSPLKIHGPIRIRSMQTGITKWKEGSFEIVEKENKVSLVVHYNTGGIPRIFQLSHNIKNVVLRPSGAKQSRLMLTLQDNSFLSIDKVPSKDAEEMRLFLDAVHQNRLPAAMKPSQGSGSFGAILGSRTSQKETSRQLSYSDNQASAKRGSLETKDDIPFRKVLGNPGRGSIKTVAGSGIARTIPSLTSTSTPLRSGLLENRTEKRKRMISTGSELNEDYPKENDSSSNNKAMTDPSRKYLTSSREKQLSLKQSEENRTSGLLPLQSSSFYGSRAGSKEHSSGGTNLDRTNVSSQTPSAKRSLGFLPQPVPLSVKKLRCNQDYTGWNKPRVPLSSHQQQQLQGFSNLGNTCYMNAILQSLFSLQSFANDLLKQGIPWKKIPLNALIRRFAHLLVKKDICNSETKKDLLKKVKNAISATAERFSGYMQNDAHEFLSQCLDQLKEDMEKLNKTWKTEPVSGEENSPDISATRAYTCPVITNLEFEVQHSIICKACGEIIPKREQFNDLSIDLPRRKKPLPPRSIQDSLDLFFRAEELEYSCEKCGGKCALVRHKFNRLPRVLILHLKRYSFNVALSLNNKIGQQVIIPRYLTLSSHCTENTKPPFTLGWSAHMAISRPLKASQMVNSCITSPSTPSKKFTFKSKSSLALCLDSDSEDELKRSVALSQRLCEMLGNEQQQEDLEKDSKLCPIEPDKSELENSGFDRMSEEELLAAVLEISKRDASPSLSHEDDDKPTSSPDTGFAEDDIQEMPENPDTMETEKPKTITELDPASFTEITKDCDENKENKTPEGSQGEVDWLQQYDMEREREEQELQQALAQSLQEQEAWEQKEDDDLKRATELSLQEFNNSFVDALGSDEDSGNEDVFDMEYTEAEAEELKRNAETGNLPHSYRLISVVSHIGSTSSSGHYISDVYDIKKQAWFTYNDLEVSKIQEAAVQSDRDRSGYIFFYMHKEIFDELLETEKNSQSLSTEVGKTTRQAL
Measured Attribute: IC50

Per the records, this compound ( Cc1nc2c(C(O)C(=O)N3CC4=C(C3)CN(S(=O)(=O)c3cnc5c(c3)OCCO5)C4)cccc2o1 (stereo not shown) ) has IC50 equal to > 33.3 µM

Values from paper PMC7849821
